System: Human gammaherpesvirus 4
Test: Induction of EBV-early antigen expressed in human Raji cells at 10^-7 M after 48 hrs by immunofluorescence assay relative to control
Type: organism-based
Run Parameters: human gammaherpesvirus 4, raji, 0.1 µM
Form field: Activity (one value per entry).
Respond with the bare value in %.

Reference set, count: 2
{"columns": ["Molecule", "Obs Value"],
 "data": [
  ["CC1(C)CC[C@@H]2CC(=O)O[C@@H](CO)CC(=O)O[C@@H]3C[C@@H](CCCCc4c(Br)cc(Br)c(O)c4Br)O[C@@]1(C3)O2", 1.9],
  ["CCCCCCCCCCCCCC(=O)O[C@@H]1[C@@H](C)[C@@]2(O)[C@@H](C=C(CO)C[C@]3(O)C(=O)C(C)=C[C@@H]23)[C@@H]2C(C)(C)[C@]12OC(C)=O [PHORBOL MYRISTATE ACETATE]", 29.4]
]}

[Q] Lab request: please report Activity under test system Human gammaherpesvirus 4 for COc1cccc(CCCC[C@@H]2C[C@@H]3C[C@@]4(O[C@H](CCC4(C)C)CC(=O)O[C@@H](CO)CC(=O)O3)O2)c1
[A] 2.6
